Target: recombinant human 5-HT6 receptor (Homo sapiens, UniProt P50406)
Construct: host or cells: HEK 293 cells with tetracycline-induced T-Rex system (Invitrogen)
Sequence (P50406 whole entry): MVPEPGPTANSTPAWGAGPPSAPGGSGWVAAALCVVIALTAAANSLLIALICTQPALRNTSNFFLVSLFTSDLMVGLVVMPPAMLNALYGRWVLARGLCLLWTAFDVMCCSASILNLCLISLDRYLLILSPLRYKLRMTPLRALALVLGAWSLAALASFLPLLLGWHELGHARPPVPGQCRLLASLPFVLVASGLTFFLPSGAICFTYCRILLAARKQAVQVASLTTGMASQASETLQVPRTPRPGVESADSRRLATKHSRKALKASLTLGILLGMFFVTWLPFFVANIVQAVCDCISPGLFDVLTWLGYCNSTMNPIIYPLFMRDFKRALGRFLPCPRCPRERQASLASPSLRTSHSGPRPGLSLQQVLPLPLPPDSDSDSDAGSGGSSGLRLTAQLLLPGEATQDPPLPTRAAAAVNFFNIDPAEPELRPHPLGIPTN
Experiment: Antagonistic activity towards serotonin 5-HT6 receptors, cAMP cell function experiment
Format: cell-based
Conditions: HEK 293 cells expressing recombinant human 5-HT6 receptor; cAMP response to 10 μM serotonin; read-out: IC50, ability to block serotonin 5-HT6 receptors in the setting of cell function experiments
pIC50: −log10 of the molar value. Structures can show the parent of a compound that is named as a salt.
Label scheme for pIC50: lower than 6 is False, 6 and above is True.

{"Compound": "CN1CCc2c(c3cc(S(=O)(=O)c4ccccc4)ccc3n2CCc2ccccn2)C1 [1.1(16)•2HCl]", "Qualitative label": "True"}
{"Compound": "O=S(=O)(Nc1cccc(F)c1)c1ccc2[nH]c3c(c2c1)CN(Cc1ccccc1)CC3 [1.2(6)•HCl]", "Qualitative label": "True"}
{"Compound": "CN1CCc2[nH]c3ccc(S(=O)(=O)c4cccnc4)cc3c2C1 [1.1(1)•2HCl]", "Qualitative label": "True"}
{"Compound": "CN1CCc2[nH]c3ccc(S(=O)(=O)c4ccncc4)cc3c2C1 [1.1(2)•2HCl]", "Qualitative label": "False"}
{"Compound": "CN1CCN(S(=O)(=O)c2ccc3[nH]c4c(c3c2)CN(C)CC4)CC1 [1.2(10)]", "Qualitative label": "False"}
{"Compound": "CN1CCc2[nH]c3ccc(S(=O)(=O)Nc4cccc(F)c4)cc3c2C1.Cl [1.2.1(3)•HCl]", "Qualitative label": "True"}
{"Compound": "CN1CCc2[nH]c3ccc(S(=O)(=O)c4cccc(F)c4)cc3c2C1 [1.1.1(3)•HCl]", "Qualitative label": "True"}
{"Compound": "CN1CCc2c(c3cc(S(=O)(=O)c4ccccc4)ccc3n2C)C1.Cl [1.1.1(4)•HCl]", "Qualitative label": "True"}

Values from patent US20120071493A1
